FYI, the data here is from ChEMBL document CHEMBL1135136.

// Carbonic anhydrase 1 (Homo sapiens, UniProt P00915) Ki records
Your answer should be a plain number; it is taken to be in nM.

Prompt: Short answer please: Ki, Carbonic anhydrase 1 (Homo sapiens, UniProt P00915), entry "C[C@H](CCC(=O)NNc1ccc(S(N)(=O)=O)cc1)[C@H]1CC[C@H]2[C@@H]3[C@H](O)C[C@@H]4C[C@H](O)CC[C@]4(C)[C@H]3C[C@H](O)[C@]12C"
Completion: 32100

Prompt: GET /values?readout=Ki&system=Carbonic anhydrase 1 (Homo sapiens, UniProt P00915)&item= "C[C@H](CCC(=O)NCc1ccc(S(N)(=O)=O)cc1)[C@H]1CC[C@H]2[C@@H]3C(=O)C[C@@H]4CC(=O)CC[C@]4(C)[C@H]3CC(=O)[C@]12C"
Completion: 600

Prompt: Look up Ki with Carbonic anhydrase 1 (Homo sapiens, UniProt P00915) for this compound: "C[C@H](CCC(=O)Nc1c(S(N)(=O)=O)cc(S(N)(=O)=O)c(Cl)c1Cl)[C@H]1CC[C@H]2[C@@H]3[C@H](O)C[C@@H]4C[C@H](O)CC[C@]4(C)[C@H]3CC[C@]12C"
Sequence (P00915 whole entry): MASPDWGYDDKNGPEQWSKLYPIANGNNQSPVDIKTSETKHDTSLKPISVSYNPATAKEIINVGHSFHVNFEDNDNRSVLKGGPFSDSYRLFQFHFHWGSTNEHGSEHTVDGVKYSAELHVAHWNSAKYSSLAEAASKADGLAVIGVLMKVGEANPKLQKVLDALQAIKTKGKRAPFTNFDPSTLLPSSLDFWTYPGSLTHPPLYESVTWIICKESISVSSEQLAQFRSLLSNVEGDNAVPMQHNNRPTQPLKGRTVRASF
Completion: 343

====

reported metric: pKi
Lab note: report pKi as minus log10 of the concentration in molar units, number only.

Prompt: Give recorded pKi with Carbonic anhydrase 2 (Homo sapiens, UniProt P00918) for the following compound: "C[C@H](CCC(=O)Nc1ccc(S(N)(=O)=O)cc1I)[C@H]1CC[C@H]2[C@@H]3[C@@H](O)C[C@@H]4C[C@H](O)CC[C@]4(C)[C@H]3CC[C@]12C"
Completion: 7.89

Prompt: Notebook: pull reported pKi for Carbonic anhydrase 2 (Homo sapiens, UniProt P00918), entry "C[C@H](CCC(=O)Nc1ccc(S(N)(=O)=O)cc1I)[C@H]1CC[C@H]2[C@@H]3[C@H](O)C[C@@H]4C[C@H](O)CC[C@]4(C)[C@H]3CC[C@]12C"
Completion: 7.26

Prompt: Can you look up pKi on Carbonic anhydrase 2 (Homo sapiens, UniProt P00918) for "C[C@H](CCC(=O)OCc1ccc(S(N)(=O)=O)cc1)[C@H]1CC[C@H]2[C@@H]3[C@H](O)C[C@@H]4C[C@H](O)CC[C@]4(C)[C@H]3CC[C@]12C" ?
Completion: 7.01

Prompt: For Carbonic anhydrase 2 (Homo sapiens, UniProt P00918), provide pKi of "C[C@H](CCC(=O)Nc1c(S(N)(=O)=O)cc(S(N)(=O)=O)c(Cl)c1Cl)[C@H]1CC[C@H]2[C@@H]3CC[C@@H]4C[C@H](O)CC[C@]4(C)[C@H]3C[C@H](O)[C@]12C" please.
Completion: 7.70

Prompt: Which pKi is reported with Carbonic anhydrase 2 (Homo sapiens, UniProt P00918) for this entry: "C[C@H](CCC(=O)NCCc1ccc(S(N)(=O)=O)cc1)[C@H]1CC[C@H]2[C@@H]3C(=O)C[C@@H]4CC(=O)CC[C@]4(C)[C@H]3CC(=O)[C@]12C" ?
Completion: 7.74

====

target desc: UniProt:P00918
pKi: −log10 of the molar value.
Output MET for pKi not less than 8; output NOT MET otherwise.

Prompt: pKi >= 8 for "C[C@H](CCC(=O)Nc1c(S(N)(=O)=O)cc(S(N)(=O)=O)c(Cl)c1Cl)[C@H]1CC[C@H]2[C@@H]3[C@H](O)C[C@@H]4C[C@H](O)CC[C@]4(C)[C@H]3C[C@H](O)[C@]12C" ?
Completion: NOT MET

Prompt: Quick check: does "C[C@H](CCC(=O)Nc1ccc2nc(S(N)(=O)=O)sc2c1)[C@H]1CC[C@H]2[C@@H]3C(=O)C[C@@H]4CC(=O)CC[C@]4(C)[C@H]3CC(=O)[C@]12C" have pKi greater than or equal to 8?
Completion: MET

Prompt: I'd appreciate it if you could say whether "C[C@H](CCC(=O)NCc1ccc(S(N)(=O)=O)cc1)[C@H]1CC[C@H]2[C@@H]3CC[C@@H]4C[C@H](O)CC[C@]4(C)[C@H]3C[C@H](O)[C@]12C" has pKi at least equal to 8.
Completion: NOT MET

Prompt: Hi, just wondering whether "C[C@H](CCC(=O)OCCc1ccc(S(N)(=O)=O)cc1)[C@H]1CC[C@H]2[C@@H]3[C@@H](O)C[C@@H]4C[C@H](O)CC[C@]4(C)[C@H]3CC[C@]12C" shows pKi of 8 or higher.
Completion: NOT MET

====

For each entry below, report its Ki value.
Entry rule: numbers only, all in nM.

Prompt: Which Ki is reported with Carbonic anhydrase 4 (Bos taurus) for this entry: "C[C@H](CCC(=O)Nc1cc(Cl)c(S(N)(=O)=O)cc1S(N)(=O)=O)[C@H]1CC[C@H]2[C@@H]3[C@H](O)C[C@@H]4C[C@H](O)CC[C@]4(C)[C@H]3C[C@H](O)[C@]12C" ?
Completion: 130

Prompt: Give Ki (Carbonic anhydrase 4 (Bos taurus)) of the following molecule: "C[C@H](CCC(=O)Oc1ccc2nc(S(N)(=O)=O)sc2c1)[C@H]1CC[C@H]2[C@@H]3C(=O)C[C@@H]4CC(=O)CC[C@]4(C)[C@H]3CC(=O)[C@]12C"
Completion: 5

Prompt: Hello, I am looking for reported Ki with Carbonic anhydrase 4 (Bos taurus) for "C[C@H](CCC(=O)NCCc1ccc(S(N)(=O)=O)cc1)[C@H]1CC[C@H]2[C@@H]3CC[C@@H]4C[C@H](O)CC[C@]4(C)[C@H]3CC[C@]12C" . Could you help?
Completion: 70

Prompt: # value lookup — system Carbonic anhydrase 4 (Bos taurus), readout Ki, item "C[C@H](CCC(=O)OCc1ccc(S(N)(=O)=O)cc1)[C@H]1CC[C@H]2[C@@H]3[C@@H](O)C[C@@H]4C[C@H](O)CC[C@]4(C)[C@H]3CC[C@]12C"
Completion: 245

Prompt: Notebook: pull reported Ki for Carbonic anhydrase 4 (Bos taurus), entry "C[C@H](CCC(=O)Nc1ccccc1S(N)(=O)=O)[C@H]1CC[C@H]2[C@@H]3[C@H](O)C[C@@H]4C[C@H](O)CC[C@]4(C)[C@H]3C[C@H](O)[C@]12C"
Completion: 1200

====

Entries with their measured pKi, system Carbonic anhydrase 4 (Bos taurus, UniProt Q95323):
# log scale: pKi equals minus log10 of the concentration in mol/L

Prompt: Any idea what pKi was measured for "C[C@H](CCC(=O)Nc1ccc(S(N)(=O)=O)cc1)[C@H]1CC[C@H]2[C@@H]3C(=O)C[C@@H]4CC(=O)CC[C@]4(C)[C@H]3CC(=O)[C@]12C" ?
Completion: 6.83

Prompt: If you can, please state the reported pKi value of "C[C@H](CCC(=O)Oc1ccc2nc(S(N)(=O)=O)sc2c1)[C@H]1CC[C@H]2[C@@H]3CC[C@@H]4C[C@H](O)CC[C@]4(C)[C@H]3CC[C@]12C" .
Completion: 8.05

Prompt: Find the recorded pKi belonging to "C[C@H](CCC(=O)Nc1ccc2nc(S(N)(=O)=O)sc2c1)[C@H]1CC[C@H]2[C@@H]3CC[C@@H]4C[C@H](O)CC[C@]4(C)[C@H]3CC[C@]12C" and report it.
Completion: 8.05

Prompt: Recorded pKi of "C[C@H](CCC(=O)Nc1ccccc1S(N)(=O)=O)[C@H]1CC[C@H]2[C@@H]3[C@H](O)C[C@@H]4C[C@H](O)CC[C@]4(C)[C@H]3CC[C@]12C" , please.
Completion: 6.05

Prompt: GET /values?readout=pKi&item= "C[C@H](CCC(=O)Nc1cc(Cl)c(S(N)(=O)=O)cc1S(N)(=O)=O)[C@H]1CC[C@H]2[C@@H]3CC[C@@H]4C[C@H](O)CC[C@]4(C)[C@H]3CC[C@]12C"
Completion: 7.09

====

target desc: Carbonic anhydrase 1 (Homo sapiens, UniProt P00915)
One threshold, 500 nM, splits the recorded Ki values: lower ones are YES, equal or higher ones are NO.

Prompt: Given "C[C@H](CCC(=O)NNc1ccc(S(N)(=O)=O)cc1)[C@H]1CC[C@H]2[C@@H]3[C@@H](O)C[C@@H]4C[C@H](O)CC[C@]4(C)[C@H]3CC[C@]12C" , is recorded Ki strictly lower than 500 nM?
Completion: NO

Prompt: Please determine if "C[C@H](CCC(=O)NCCc1ccc(S(N)(=O)=O)cc1)[C@H]1CC[C@H]2[C@@H]3C(=O)C[C@@H]4CC(=O)CC[C@]4(C)[C@H]3CC(=O)[C@]12C" is below 500 nM in terms of Ki.
Completion: YES

Prompt: Bench note: check whether "C[C@H](CCC(=O)Nc1ccc(S(N)(=O)=O)cc1I)[C@H]1CC[C@H]2[C@@H]3C(=O)C[C@@H]4CC(=O)CC[C@]4(C)[C@H]3CC(=O)[C@]12C" shows Ki below 500 nM
Completion: YES
